targetOrSystem: Epidermal growth factor receptor (Homo sapiens, UniProt P00533)
Sequence (P00533 whole entry): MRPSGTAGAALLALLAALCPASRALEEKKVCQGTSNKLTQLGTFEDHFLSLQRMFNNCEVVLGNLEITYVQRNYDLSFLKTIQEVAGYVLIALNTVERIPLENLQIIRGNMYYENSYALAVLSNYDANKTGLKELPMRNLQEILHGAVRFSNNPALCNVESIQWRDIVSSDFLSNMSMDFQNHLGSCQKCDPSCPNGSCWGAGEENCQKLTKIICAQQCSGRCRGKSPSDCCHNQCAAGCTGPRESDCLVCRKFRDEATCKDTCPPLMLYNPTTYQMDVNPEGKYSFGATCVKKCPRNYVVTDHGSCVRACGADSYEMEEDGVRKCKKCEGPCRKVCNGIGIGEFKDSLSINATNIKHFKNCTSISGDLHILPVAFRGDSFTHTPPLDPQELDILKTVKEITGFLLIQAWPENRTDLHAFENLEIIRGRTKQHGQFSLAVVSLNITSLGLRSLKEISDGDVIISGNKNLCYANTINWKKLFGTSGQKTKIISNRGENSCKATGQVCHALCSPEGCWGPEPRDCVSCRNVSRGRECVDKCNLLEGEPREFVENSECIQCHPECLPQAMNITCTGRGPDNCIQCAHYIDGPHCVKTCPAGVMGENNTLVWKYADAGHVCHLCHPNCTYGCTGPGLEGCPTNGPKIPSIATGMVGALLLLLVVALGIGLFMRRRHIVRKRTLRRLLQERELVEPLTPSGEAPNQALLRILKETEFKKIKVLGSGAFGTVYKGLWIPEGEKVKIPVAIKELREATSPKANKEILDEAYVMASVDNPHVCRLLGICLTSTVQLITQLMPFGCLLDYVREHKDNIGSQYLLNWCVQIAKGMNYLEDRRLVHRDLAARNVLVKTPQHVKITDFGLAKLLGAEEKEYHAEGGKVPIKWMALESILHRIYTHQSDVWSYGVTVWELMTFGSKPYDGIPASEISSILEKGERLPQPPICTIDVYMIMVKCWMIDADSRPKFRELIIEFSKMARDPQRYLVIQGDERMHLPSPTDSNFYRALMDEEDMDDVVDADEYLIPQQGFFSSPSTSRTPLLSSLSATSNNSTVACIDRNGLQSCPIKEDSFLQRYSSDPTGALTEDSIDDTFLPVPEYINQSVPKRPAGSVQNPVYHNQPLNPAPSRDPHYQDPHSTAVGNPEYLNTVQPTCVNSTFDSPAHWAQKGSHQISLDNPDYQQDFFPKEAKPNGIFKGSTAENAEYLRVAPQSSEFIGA
experimentalDetails: Inhibition of EGFR phosphorylation in human PC9 cells after 24 hrs by Western blot analysis

structureSmilesString: C#Cc1cccc(Nc2nc(Cl)nc3cc(OC)c(OC)cc23)c1
IC50: > 8 µM
